- target-or-system: T1, mouse PAI-1 (mouse, UniProt P22777 24-401)
- T1 sequence: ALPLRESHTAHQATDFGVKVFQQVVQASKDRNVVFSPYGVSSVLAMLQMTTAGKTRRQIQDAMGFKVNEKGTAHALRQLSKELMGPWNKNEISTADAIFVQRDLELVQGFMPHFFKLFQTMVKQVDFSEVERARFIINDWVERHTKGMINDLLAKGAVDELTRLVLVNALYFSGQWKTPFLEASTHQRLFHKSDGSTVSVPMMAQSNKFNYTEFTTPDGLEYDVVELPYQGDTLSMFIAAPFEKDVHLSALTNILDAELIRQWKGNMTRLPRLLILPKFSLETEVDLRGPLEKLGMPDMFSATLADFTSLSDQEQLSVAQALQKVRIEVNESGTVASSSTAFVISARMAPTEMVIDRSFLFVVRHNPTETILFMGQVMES
- assay-protocol: cell-based or functional assay
reported-metric: Chromogenic (IC50 in nM) mouse
Number in nM, nothing else.

Query: For the binder shown here, Antibody 21 scFv (scFv) PVQLQQSGAEVKKPGSSVKVSCKASGGTFSSYAISWVRQAPGQGLEWMGGIIPTFGTANYAQKFQGRVTITADESTSTAYMELSGLRSEDTAVYYCAREKRQWLEGHFDYWGRGTPVTVSSDIQMAQSPSFLSASIGDRVTITCRASEGIYHNLAWYQQKPGKAPKLLIYRASSLASGAPSRFSGSGSGTDFTLTISSLQPDDFATYYCQQYSNYPLTFGGGTKLEIK , give the reported Chromogenic (IC50 in nM) mouse.
Result: 32.2

Query: Antibody 03 scFv (scFv) QVQLQQSGAEVKKPGSSVKVSCKASGGTFSSYAISWVRQAPGQGLEWMGGIIPTFGTANYAQKFQGRVTITADESTSTAYMELSGLRSEDTAVYYCAREKRQWLEGHFDYWGRGTPVTVSSDIQMTQSPSFLSASIGDRVTITCRASEGIYRSLAWYQQKPGKAPKLLIYKASSLASGAPSRFSGSGSGTDFTLTISGLQPDDFATYYCQQYSNYPLTFGGGTKLEIK ?
Result: 54.9

Query: Antibody 02 scFv (scFv) QVQLVQSGAEVKKPGSSVKVSCKASGGTFSSYAISWVRQAPGQGLEWMGGIIPTFGTANYAQKFQGRVTITADESTSTAYMELSSLRSEDTAVYYCAREKRQWLEGHFDYWGRGTLVTVSSDIQMTQSPSTLSASVGDRVTITCRASEGIYHSLAWYQQKPGKAPKLLIYKASSLASGVPSRFSGSGSGTEFTLTISSLQPDDFATYYCQQYSDYPLTFGGGTKVEIK ?
Result: 553

Query: Antibody 22 scFv (scFv) QVQLQQSGAEVKKPGSSVKVSCKASGGTFSGYAISWVRQAPGQGLEWMGGIIPTFGTANYSQKFQGRVTITADESTSTAYMELSGLRSEDTAVYYCAREKRQWLEGHFDYWGRGTPVTVSSDIQMTQSLSFLSASIGDRVTITCRASEGIYHALAWYQQKPGKAPKLLIYRASSLASGAPSRFSGSGSGTDFTLTISSLQPDDFATYYCQQYSNYPLTFGGGTKLEIK ?
Result: 413

Query: Antibody 18 scFv (scFv) QVQLQQSGAEVKKPGSSVKVSCKASGGTFSSYAISWVRQAPGQGLEWMGGIIPTFGTANYAQKLQGRVTITADESTSTAYMELSGLRSEDTAVYYCAREKRQWLEGHFDYWGRGTPVTVSSDIQMTQSPSFLSASIGDRVTITCRASEGIYHALAWYQQKPGKAPKLLIYRASSLASGAPSRFSGSGSGTDFTLTISSLQPDDFATYYCQQYSNYPLTFGGGTKLEIK ?
Result: 319

Query: Antibody 16 scFv (scFv) QVQLVQSGAEVKKPGSSVKVSCKASGGTFSSYAISWVRQAPGQGLEWMGGIIPTFGTANYAQKFQGRVTITADESTSTAYMELSSLRSEDTAVYYCAREKRQWLEGHFDYWGRGTLVTVSSDIQMTQSPSTLSASVGDRVTITCRASESIYHSLAWYQQKPGKAPKLLIYKASSLASGVPSRFSGSRSGTEFTLTISSLQPDDFATYYCQQYSNYPLTFGGGTKVEIK ?
Result: 4.3

Query: Antibody 15 scFv (scFv) QVQLQQSGAEVKKPGSSVKVSCKASGGTFSSYAISWVRQAPGQGLEWMGGIIPTFGTANYAQKFQGRVTITADESTSTAYMELSGLRSEDTAVYYCAREKRQWLEGHFDYWGRGTPVTVSSDIQMAQSPSFLSASIGDRVTITCRASEGIYHNLAWYQQKPGKAPKLLIYRASSLASGAPSRFSGSGSGTDFTLTISSLQPDDFATYYCQQYSNYPLTFGGGTKLEIR ?
Result: 66.9

Query: Antibody 20 scFv (scFv) QVQLQQSGAEVKKPGSSVKVSCKASGGTFSSYAISWVRQAPGQGLEWMGGIIPTFGTANYAQKFQGRVTITADESTSTAYMELSSLRSEDTAVYYCAREKRQWLEGHFDYWGRGTLVTVSSDIQMTQSPSTLSASVGDRVTITCRASEGIYHELAWYQQKPGKAPKLLIYRASSLASGVPSRFSGSRSGTEFTLTISSLQPDDFATYYCQQYSDYPLTFGGGTKVEIK ?
Result: 4.9

Query: Antibody 23 scFv (scFv) QVQLQQSGAEVKKPGSSVKVSCKASGGTFSSYAISWVRQAPGQGLEWMGGIIPTFGTANYAQKFQSRVTITADESTSTAYMELSGLRSEDTAVYYCAREKRQWLEGHFDYWGRGTPVTVSSDIQMTQSPSFLSASIGDRVTITCRASEGIYHSLAWYQQKPGKAPKLLIYRASSLASGAPSRFSGSGSGTDFTLTISSLQPDDFATYYCQQYSNYPLTFGGGTKLEIK ?
Result: 376

Query: Antibody 05 scFv (scFv) QVQLQQSGAEVKKPGSSVKVSCKASGGTFSSYAISWVRQAPGQGLEWMGGIIPTFSTANYAQKFRGRVTITADESTSTAYMELSGLRSEDTAVYYCAREKRQWLEGHFDYWGRGTPVTVSSDIQMTQSPSFLSASIGDRVTITCRASEGIYHQLAWYQQKPGKAPKLLIYRASSLASGAPSRFSGSGSGTDFTLTISSLQPDDFATYYCQQYSNYPLTFGGGTKLEIK ?
Result: 718
